# Test system: HS 578T breast
# Experimental protocol: NCI-60 one-dose screen, 48 h
# Condition description: 10 µM unless noted
About 83,000 compounds went through this panel and 20% of them were active in at least one assay; those are over-represented in the sample as a whole. Active and inactive are the calls of the source. How the source made its calls: active means growth percent below 10; inactive means the rest.
Choose one outcome from this list and give only that: active, inactive

Hi, do you know how "CCOC(=O)c1cc(C(=O)c2cc(OC)c(OC)c(OC)c2)n2ccc(-c3ccncc3)cc12" came out in this test? inactive

Hi, do you know how "N#Cc1c(N)nnn1Cc1cc(=O)oc2c1ccc1ccccc12" came out in this test? inactive

Hi, do you know how "Cc1nc2ncnc(Cl)c2[nH]1" came out in this test? inactive

Hi, do you know how "O=C(CSc1nc(-c2ccccc2)[nH]c1S(=O)(=O)c1ccccc1)NC1CC1" came out in this test? inactive

Hi, do you know how "CC(C)OC(=O)c1ccc2[nH]c(O)c(C(=Nc3ccc(N(C)C(=O)CN4CCN(C)CC4)cc3)c3ccccc3)c2c1" came out in this test? active

Hi, do you know how "c1ccc(C2=NN[C@H](c3cn(-c4ccccc4)nc3-c3ccccc3)C2)cc1" came out in this test? active

Hi, do you know how "O=C(Cn1c(=O)sc2ccccc21)NNS(=O)(=O)c1ccccc1[N+](=O)[O-]" came out in this test? inactive

Hi, do you know how "O=C1c2cc(Cl)ccc2S(=O)(=O)c2c(NCCCNCCO)nc3ccccc3c21" came out in this test? active
